Where do the numbers come from? From patent US20090170750A1.

Measured IR, binding relative to human insulin by item
assayed target: purified recombinant human insulin receptor-exon 11 (human) (UniProt P06213)
Sequence (P06213 other isoform, or with tags, fused parts or gaps limits assumed, form in doubt): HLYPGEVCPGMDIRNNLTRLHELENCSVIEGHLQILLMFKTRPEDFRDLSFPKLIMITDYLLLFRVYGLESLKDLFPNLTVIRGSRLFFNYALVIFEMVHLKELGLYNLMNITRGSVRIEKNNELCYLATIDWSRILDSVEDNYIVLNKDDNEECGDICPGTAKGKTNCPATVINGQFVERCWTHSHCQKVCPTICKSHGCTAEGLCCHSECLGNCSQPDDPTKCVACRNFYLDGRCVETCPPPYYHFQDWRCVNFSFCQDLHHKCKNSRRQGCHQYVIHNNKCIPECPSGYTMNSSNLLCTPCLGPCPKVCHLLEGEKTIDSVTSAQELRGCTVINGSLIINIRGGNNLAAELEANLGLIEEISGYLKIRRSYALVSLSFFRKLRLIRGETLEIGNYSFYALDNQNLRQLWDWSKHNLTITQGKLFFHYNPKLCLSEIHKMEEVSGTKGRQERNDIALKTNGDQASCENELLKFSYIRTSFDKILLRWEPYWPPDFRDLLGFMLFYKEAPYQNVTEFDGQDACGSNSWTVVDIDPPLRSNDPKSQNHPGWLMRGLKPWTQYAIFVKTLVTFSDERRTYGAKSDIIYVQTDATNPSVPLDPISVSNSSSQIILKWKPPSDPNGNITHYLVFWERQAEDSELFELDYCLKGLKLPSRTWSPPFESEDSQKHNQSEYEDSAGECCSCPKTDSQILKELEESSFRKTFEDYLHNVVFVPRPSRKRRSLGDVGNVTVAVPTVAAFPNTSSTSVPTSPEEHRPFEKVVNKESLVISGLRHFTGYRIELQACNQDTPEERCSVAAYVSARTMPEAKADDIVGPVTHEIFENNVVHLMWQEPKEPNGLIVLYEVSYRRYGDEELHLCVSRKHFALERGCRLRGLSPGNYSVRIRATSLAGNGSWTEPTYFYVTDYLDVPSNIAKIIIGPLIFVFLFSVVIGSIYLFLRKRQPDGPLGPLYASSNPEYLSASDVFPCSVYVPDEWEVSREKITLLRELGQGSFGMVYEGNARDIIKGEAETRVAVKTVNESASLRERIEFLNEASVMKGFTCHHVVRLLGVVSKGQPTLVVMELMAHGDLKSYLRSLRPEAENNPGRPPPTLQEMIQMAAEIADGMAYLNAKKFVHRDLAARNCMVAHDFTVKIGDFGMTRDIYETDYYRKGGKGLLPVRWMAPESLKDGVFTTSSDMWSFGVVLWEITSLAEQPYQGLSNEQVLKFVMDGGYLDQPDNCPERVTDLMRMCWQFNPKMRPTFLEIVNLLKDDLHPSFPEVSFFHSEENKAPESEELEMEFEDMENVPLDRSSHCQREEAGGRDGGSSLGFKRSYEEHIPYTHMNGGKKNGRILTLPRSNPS
test method notes: competition with 125I-insulin (SPA)
Please reply with the bare figure in % and do not write the unit itself.

Solved entries (count: 2):
single-chain insulin PAK 1762, connecting peptide AGMGSGP [A18Q_A21G] (from UniProt P01308 25-53; P01308 90-110) (ligand)    20
single-chain insulin PAK 1848, connecting peptide TGLGKGR [B27E_B29E_A18Q] (from UniProt P01308 25-53; P01308 90-110) (ligand)    40

// query Report IR, binding relative to human insulin for single-chain insulin PAK 1769015, connecting peptide EVGSSSGK [A18Q_A21G] (from UniProt P01308 25-53; P01308 90-110) (ligand) tested on purified recombinant human insulin receptor-exon 11 (human) (UniProt P06213).
// result 42
